protocol-summary: Pharmacokinetic interaction in vivo in rats
assay-setup: Wistar, rat, plasma, iv, 45 mg/kg, CLP, of cilastatin, i.v., cilastatin + imipenem, 45 mg/kg for both

>  <mol-smiles>
CC1(C)C[C@@H]1C(=O)N/C(=C\CCCCSC[C@H](N)C(=O)O)C(=O)O

>  <reading-unit>
mL/min/kg

>  <clearance>
8.9

$$$$

###

clearance values by entry
protocol-summary: Pharmacokinetic interaction in vivo in rats
assay-setup: Wistar, rat, plasma, iv, 45 mg/kg, CLP, single administration (alone)
metric-name: clearance (mL/min/kg)

>  <molecule>
C[C@@H](O)[C@H]1C(=O)N2C(C(=O)O)=C(SCCN=CN)C[C@H]12 [Imipenem]

>  <reported-value>
21.6

$$$$
>  <molecule>
CC1(C)C[C@@H]1C(=O)N/C(=C\CCCCSC[C@H](N)C(=O)O)C(=O)O [Cilastatin]

>  <reported-value>
13.3

$$$$

###

protocol-summary: Pharmacokinetic interaction in vivo in rats
assay-setup: Wistar, rat, plasma, iv, 45 mg/kg, C0, rat, single administration (alone)
Attribute: C0
metric-name: C0

>  <mol-smiles>
CC1(C)C[C@@H]1C(=O)N/C(=C\CCCCSC[C@H](N)C(=O)O)C(=O)O

>  <reported-value>
156 µg/mL

$$$$
>  <mol-smiles>
C[C@@H](O)[C@H]1C(=O)N2C(C(=O)O)=C(SCCN=CN)C[C@H]12

>  <reported-value>
129 µg/mL

$$$$

The measurements presented in this section are drawn from paper PMC7193450.
